- System: MOLT-4
- assayName: Cytotoxicity against human MOLT4 cells assessed as cell viability after 72 hrs by CCK8 assay
- Format: functional, cell-based
- statedConditions: MOLT-4, 72 h
measurementKind: IC50 (µM)
Please reply with the bare figure in µM and do not write the unit itself.

Check out these entries, answers already filled in.
[
  {
    "compound": "CC(=O)O[C@@H]1[C@@H](C)[C@@]2(O)[C@@H](C=C(CO)C[C@]3(O)C(=O)C(C)=C[C@@H]23)[C@@H]2C(C)(C)[C@]12OC(=O)C(C)C",
    "IC50 (µM)": 2.4
  },
  {
    "compound": "CCC(C)C(=O)O[C@@]12[C@H](O)[C@@H](C)[C@]3(O)[C@@H]4C=C(C)C(=O)[C@@H]4CC(CO)=C[C@H]3[C@@H]1C2(C)C (stereo partly drawn)",
    "IC50 (µM)": 9.9
  }
]

Note: attention shifts to another entry.
Prompt: Quick one: IC50 for C/C=C(\C)C(=O)O[C@@H]1[C@@H](C)[C@@]2(O)[C@@H](C(=O)C(CO)=C[C@]3(O)C(=O)C(C)=C[C@@H]23)[C@@H]2C(C)(C)[C@]12OC(=O)C(C)CC (stereo partly drawn) ?
Completion: 4.8

----------
- System: DU-145
- assayName: Cytotoxicity against human DU145 cells assessed as cell viability after 72 hrs by CCK8 assay
- Type: functional, cell-based
- statedConditions: DU-145, 72 h
Property: pIC50; scope: individual molecules
Keep in mind that pIC50 stands for -log10 of concentration in molar terms.

Prompt: Request the reported pIC50 associated with CC(=O)O[C@H]1C(=O)[C@@]2(C)[C@H]([C@H](OC(=O)c3ccccc3)[C@]3(O)C[C@H](OC(=O)[C@H](O)[C@@H](NC(=O)c4ccccc4)c4ccccc4)C(C)=C1C3(C)C)[C@]1(OC(C)=O)CO[C@@H]1C[C@@H]2O
Completion: 8.47

Prompt: What measured pIC50 goes with CCC(C)C(=O)O[C@@]12[C@H](OC(C)=O)[C@@H](C)[C@@]3(O)[C@@H](C(=O)C(CO)=C[C@]4(O)C(=O)C(C)=C[C@@H]34)[C@@H]1C2(C)C (stereo not given in full) ?
Completion: 4.96

Prompt: Returns the measured pIC50 for the input molecule. Input: CCC(C)C(=O)O[C@@]12[C@H](OC(=O)c3ccccc3)[C@@H](C)[C@@]3(O)[C@@H](C=C(CO)C[C@]4(O)C(=O)C(C)=C[C@@H]34)[C@@H]1C2(C)C (stereo not given in full)
Completion: 5.37

Prompt: Which pIC50 is reported for this molecule? CCC(C)C(=O)O[C@@]12[C@H](O)[C@@H](C)[C@]3(O)[C@@H]4C=C(C)C(=O)[C@@H]4CC(CO)=C[C@H]3[C@@H]1C2(C)C (stereo not given in full)
Completion: 5.00

Prompt: Bench note: what pIC50 did C/C=C(\C)C(=O)O[C@@H]1[C@@H](C)[C@@]2(O)[C@@H](C=C(CO)C[C@]3(O)C(=O)C(C)=C[C@@H]23)[C@@H]2C(C)(C)[C@]12OC(=O)C(C)CC (stereo not given in full) show?
Completion: 5.30

----------
- System: DU-145
- assayName: Cytotoxicity against human DU145 cells assessed as cell viability after 72 hrs by CCK8 assay
- Type: functional, cell-based
- statedConditions: DU-145, 72 h
measurementKind: pIC50
Bear in mind: pIC50 is minus log10 of a mol/L concentration; give just that figure.

[
  {
    "molecule": "C/C=C(\\C)C(=O)O[C@@H]1[C@@H](C)[C@@]2(O)[C@@H](C=C(CO)C[C@]3(O)C(=O)C(C)=C[C@@H]23)[C@@H]2C(C)(C)[C@]12OC(=O)C(C)C",
    "testedOn": "DU-145",
    "pIC50": 5.96
  },
  {
    "molecule": "C/C=C(\\C)C(=O)O[C@@H]1[C@@H](C)[C@@]2(O)[C@@H](C(=O)C(CO)=C[C@]3(O)C(=O)C(C)=C[C@@H]23)[C@@H]2C(C)(C)[C@]12OC(=O)C(C)CC (stereo partly drawn)",
    "testedOn": "DU-145",
    "pIC50": 5.00
  }
]

Okay, next one:
Prompt: So what's the measured pIC50 for this one? CC(=O)O[C@@H]1[C@@H](C)[C@@]2(O)[C@@H](C=C(CO)C[C@]3(O)C(=O)C(C)=C[C@@H]23)[C@@H]2C(C)(C)[C@]12OC(=O)C(C)C
Completion: 5.14
